- assayedSystem: G-protein coupled receptor 183 (Homo sapiens) (UniProt P32249)
- Sequence (P32249 whole entry, looked up, the tested form may be a part): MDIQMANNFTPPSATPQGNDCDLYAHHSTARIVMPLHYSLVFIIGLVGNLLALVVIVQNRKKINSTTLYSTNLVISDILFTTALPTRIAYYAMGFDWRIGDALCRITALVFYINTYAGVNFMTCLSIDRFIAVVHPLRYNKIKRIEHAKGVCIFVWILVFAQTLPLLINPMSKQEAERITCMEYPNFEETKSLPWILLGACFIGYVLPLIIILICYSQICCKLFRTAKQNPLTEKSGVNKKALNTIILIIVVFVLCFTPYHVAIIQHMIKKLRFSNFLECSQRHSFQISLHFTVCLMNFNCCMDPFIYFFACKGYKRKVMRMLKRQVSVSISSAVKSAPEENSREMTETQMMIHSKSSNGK
- testSummary: EBI2 receptor antagonists, beta-arrestin recruitment, primary screen, cell-based, luminescence, 7a,25-OHC stimulation, uHTS (AID 651636);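 further: enzyme fragment complementation signal reports receptor beta-arrestin coupling in cells; 0% = agonist plus DMSO wells and 100% = wells without agonist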
- runParameters: 7a,25-OHC stimulated, at 5 µM
The campaign covered roughly 360,000 compounds. About 3,000 (0.83%) were called active. No stated cut-off is given here; in the data, active means inhibition above about 38%; inactive means the rest. The sample holds actives, similar compounds and a random draw of the others, so the mix is not that of the screen.
Your answer must be one of the following: active, inactive

Completed entries (count: 5):
{"compound": "Cc1cc(OCCOc2cccc3cccnc23)c(C)cc1Cl", "assayedSystem": "G-protein coupled receptor 183 (Homo sapiens) (UniProt P32249)", "labelClass": "active"}
{"compound": "Cc1ccc(OCC(=O)N2CCN(C(=O)c3cccnc3)CC2)cc1", "assayedSystem": "G-protein coupled receptor 183 (Homo sapiens) (UniProt P32249)", "labelClass": "active"}
{"compound": "COc1ccc(OC)c(Cc2cnc3nc(N)nc(N)c3c2C)c1", "assayedSystem": "G-protein coupled receptor 183 (Homo sapiens) (UniProt P32249)", "labelClass": "inactive"}
{"compound": "O=C(COc1ccccc1)Nc1ccc(N2CCN(C(=O)c3cccs3)CC2)cc1", "assayedSystem": "G-protein coupled receptor 183 (Homo sapiens) (UniProt P32249)", "labelClass": "inactive"}
{"compound": "CCS(=O)(=O)N1CCN(C(=O)c2cccs2)CC1", "assayedSystem": "G-protein coupled receptor 183 (Homo sapiens) (UniProt P32249)", "labelClass": "inactive"}

Dear all, I need the recorded test outcome for CSc1nnc(CNC(=O)c2ccccc2)n1-c1ccc(F)cc1 , thank you.
inactive

Follow-up entry: N/C(=N\OC(=O)CCc1ccccc1)c1ccc(Cl)cc1
inactive

Note, next up: CCCCc1ccc(NS(=O)(=O)c2cccc(C(=O)N3CCCN(C)CC3)c2)cc1
inactive

---

- assayedSystem: G-protein coupled receptor 183 (Homo sapiens) (UniProt P32249)
- testSummary: EBI2 receptor antagonists, beta-arrestin recruitment, primary screen, cell-based, luminescence, 7a,25-OHC stimulation, uHTS (AID 651636)
- runParameters: 7a,25-OHC stimulated, at 5 µM, stronger effect = higher value
About 3,000 (0.83%) of roughly 360,000 compounds were called active. The sample as a whole holds a higher share of actives than the screen did.
experimentalEndpoint: inhibition (%)
Number only, in %; omit the unit.

Examples with their reported inhibition follow.
{"compound": "Cc1ccc(N2CC(C(=O)Nc3ccc(S(=O)(=O)N4CCCC4)cc3)CC2=O)cc1C (stereo not given)", "inhibition / %": 45.4}
{"compound": "O=C(Nc1ccc(S(=O)(=O)N2CCCCC2)cc1)C1CCN(C(=O)c2ccc(F)cc2)CC1", "inhibition / %": 17}
{"compound": "c1ccc(CCn2nnnc2CN2CCN(C3CCCC3)CC2)cc1", "inhibition / %": -2.13}
{"compound": "COc1ccc(C(c2nnnn2C2CCCC2)N2CCN(C/C=C/c3ccccc3)CC2)cc1 (stereo not given)", "inhibition / %": 54.1}
{"compound": "COc1ccc(C(c2nnnn2C2CCCCC2)N2CCN(c3ccccc3F)CC2)cc1 (stereo not given)", "inhibition / %": 31.1}
{"compound": "CCCCn1nnnc1C(c1cccc(OC)c1OC)N1CCN(C/C=C/c2ccccc2)CC1 (stereo not given)", "inhibition / %": 24.9}
{"compound": "COc1cccc(CNC(=O)C2CCN(S(=O)(=O)c3cccc4cccnc34)CC2)c1", "inhibition / %": -6.22}
{"compound": "O=C(Nc1ccc(S(=O)(=O)N2CCCCC2)cc1)C1CC(=O)N(c2ccc(F)cc2)C1 (stereo not given)", "inhibition / %": 45.7}
{"compound": "COc1ccccc1C(c1nnnn1C(C)(C)C)N1CCN(Cc2ccccc2)CC1 (stereo not given)", "inhibition / %": -27.6}

With those in mind, consider the next compound.
Any idea what its inhibition is? The compound is O=C(NCCN1CCOC1=O)C1CCC(=O)N(CCc2ccc(Cl)cc2)C1 (stereo not given)
5.95

---

- assayedSystem: G-protein coupled receptor 183 (Homo sapiens)
- testSummary: EBI2 receptor antagonists, beta-arrestin recruitment, primary screen, cell-based, luminescence, 7a,25-OHC stimulation, uHTS (AID 651636);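 further: enzyme fragment complementation signal reports receptor beta-arrestin coupling in cells; 0% = agonist plus DMSO wells and 100% = wells without agonist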
- runParameters: 7a,25-OHC stimulated, at 5 µM, stronger effect = higher value
Out of some 360,000 compounds screened, about 3,000 (0.83%) were called active. The entries come from a sample that favours actives as a whole.
The reader will find reported inhibition values listed item by item below.
Give the value, in units of %, as a plain number.

Below: 5 molecules and their reported inhibition.
{"molecule": "Cc1ccc(S(=O)(=O)N2CC3C(=O)C[C@@H](c4ccccc4Cl)N(S(=O)(=O)c4ccc(C)cc4)C3CC2c2ccccc2)cc1 (stereo partly specified)", "unit": "%", "inhibition": 17}
{"molecule": "COc1ccc(C(=O)CC(=O)c2ccc(C)cc2)c(O)c1", "unit": "%", "inhibition": -3.66}
{"molecule": "C=CCN(Cc1nc(-c2cc(OC)c3c(c2)OCO3)oc1C)C1CCS(=O)(=O)C1 (stereo unspecified)", "unit": "%", "inhibition": -4.13}
{"molecule": "Cc1ccc(S(=O)(=O)N2[C@@H](c3cccc4ccccc34)C(C(=O)O)=C[C@H]2C(C)(C)C)cc1", "unit": "%", "inhibition": -1.04}
{"molecule": "COc1ccc(/C=C/C(=O)c2cc(Br)ccc(=O)c2O)cc1", "unit": "%", "inhibition": -0.626}

Dear colleague, I am looking for the recorded inhibition of the following molecule: COc1ccccc1N1CCN(C(=O)C(=O)N/N=C/c2ccccc2F)CC1
2.46

Lookup COc1ccc(OC)c(/C=C/C(=O)c2ccc3c(c2)OCO3)c1
8.22

Could you do the same for CCOC(=O)C1=NN(c2ccc(Cl)cc2)/C(=C/C2=NCCc3cc(OC)c(OC)cc32)S1 , please?
6.84

Let us now turn to O=c1[nH]c(CN2CCN(S(=O)(=O)c3ccc4c(c3)OCCO4)CC2)nc2sc3c(c12)CCCC3
38.3

Cool, now Cc1ccc(C)c(NC(=O)CN(C)C(=O)COc2ccc3ccccc3c2)c1
27.2

Check CCOC(=O)[C@]12CCCC=C1N(CCC1=CCCCC1)C(=O)[C@H](CC(=O)N1CCN(C(=O)c3ccco3)CC1)C2 too.
-0.759

Please give the result for NC(=O)C1(N2CCCCC2)CCN(C(=O)c2ccc(C#Cc3ccccc3)o2)CC1 too.
-2.84

Likewise for CN1CCCN(S(=O)(=O)c2ccc3c(c2)OCCO3)CC1 ?
-1.61

---

- assayedSystem: G-protein coupled receptor 183 (Homo sapiens)
- testSummary: EBI2 receptor antagonists, beta-arrestin recruitment, primary screen, cell-based, luminescence, 7a,25-OHC stimulation, uHTS (AID 651636);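 further: enzyme fragment complementation signal reports receptor beta-arrestin coupling in cells; 0% = agonist plus DMSO wells and 100% = wells without agonist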
- runParameters: 7a,25-OHC stimulated, at 5 µM
Screen size: about 360,000 compounds; about 3,000 (0.83%) were called active. Rule as the data show it: active = inhibition above about 38%; inactive = the rest. Shown is part of a subset that was picked to be rich in actives.
In this exercise, the only acceptable responses are y (active), n (inactive)

Below, 5 compounds whose answers are already recorded.
{"compound": "CN(CC(=O)NC1CCN(Cc2ccccc2)CC1)S(=O)(=O)c1ccc(Cl)s1", "labelClass": "n"}
{"compound": "O=C(NCc1ccccc1)C1CCCN(S(=O)(=O)c2cccs2)C1 (stereo not given)", "labelClass": "n"}
{"compound": "O=C(NCc1ccc(Cl)cc1)C(=O)NCC1CCCN1S(=O)(=O)c1cccs1 (stereo not given)", "labelClass": "n"}
{"compound": "O=C(c1ccc(CS(=O)(=O)c2ccccc2)o1)N1CCN(c2ccccc2)CC1", "labelClass": "n"}
{"compound": "O=C(NCc1ccc(Cl)cc1)C1CCN(S(=O)(=O)c2cccs2)CC1", "labelClass": "y"}

Given N#CC1=C(SCc2ccc(C#N)cc2)N=C(N)C(c2nc(-c3ccccc3)cs2)C12CCCCC2 (stereo not given) , state the outcome it received in this test.
n

Please give the result for O=C(NCCS(=O)(=O)N1CCN(c2ccc(F)cc2)CC1)c1ccc2c(c1)OCO2 too.
n

Okay, and Cn1c(=O)cc(SCC(=O)N2CCN(C(=O)c3ccco3)CC2)c2ccccc21 ?
n

Now give it for CCC(=O)Nc1ccccc1C(=O)N1CCN(Cc2ccccc2)CC1 too.
n

Entry to check: O=C(CC(c1ccccc1)c1ccccc1)NCC(O)c1ccc([N+](=O)[O-])cc1 (stereo not given)
y

---

- assayedSystem: G-protein coupled receptor 183 (Homo sapiens) (UniProt P32249)
- testSummary: EBI2 receptor antagonists, beta-arrestin recruitment, primary screen, cell-based, luminescence, 7a,25-OHC stimulation, uHTS (AID 651636);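 further: enzyme fragment complementation signal reports receptor beta-arrestin coupling in cells; 0% = agonist plus DMSO wells and 100% = wells without agonist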
- runParameters: 7a,25-OHC stimulated, at 5 µM, stronger effect = higher value
About 3,000 (0.83%) of roughly 360,000 compounds were called active. Shown is part of a subset that was picked to be rich in actives.
Quick rule: inhibition of at least 40% means Satisfied, below that means Not satisfied.

These solved cases illustrate the format of a correct answer.
{"molecule": "CCCc1ccc(OCC(O)CN2CCN(C(=O)OCC)CC2)cc1 (stereo not given)", "labelClass": "Not satisfied"}
{"molecule": "CCN(CC)c1ccc(/C=N/Nc2nc(C)cc(C)n2)c(O)c1", "labelClass": "Satisfied"}

Given CCN(CC(=O)NCc1cccs1)C(=O)/C=C/c1ccc(C)cc1 , state whether its inhibition is at least 40%.
Satisfied

Now the molecule COc1ccc(S(=O)(=O)N(CC(=O)NCc2ccco2)c2ccc(F)cc2)cc1
Not satisfied

Check O=C(CSCc1ccc([N+](=O)[O-])cc1)NCCSCc1ccccc1 too.
Not satisfied

Try this molecule too: O=C(C(c1ccccc1)c1ccccc1)N1CCN(CC(O)COc2ccccc2)CC1 (stereo not given)
Satisfied

One more molecule: CC(=O)N1CCN(CC(c2ccccc2)c2ccccc2)CC1
Not satisfied

Follow-up item: CCOc1ccc(/C=C/C(=O)N(CC)CC(=O)NCc2cccs2)cc1OC
Not satisfied

// same read-out, input: COC1=C/C(=C/c2c(N)n3nc(CC(=O)N4CCOCC4)sc3nc2=O)C=CC1=O
Not satisfied

Same thing, different molecule: COc1ccc(CNC(=O)CN(c2ccc(OC)c(Cl)c2)S(=O)(=O)c2ccc(C)cc2)cc1
Satisfied

# credit: PubChem BioAssay AID651636
